Value source: the supplement of paper PMC9135407

Tested on: primary human hepatic stellate cells (donor 1)
Test: scaled lipid accumulation score (0 = DMSO-like, 1 = nortriptyline-like); higher = stronger HSC inactivation (lipid re-accumulation), active = hit call of the paper
Conditions: library stock concentration: 10 mM; 48 h
Out of some 5,800 compounds screened, about 620 (11%) showed activity.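 The calls were made as follows: active = score above a cut-off or among the top three wells of a plate; in these data no inactive exceeds 0.85.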 For the sample, actives were picked, then their nearest neighbours and some compounds at random.
Use one of these outcomes when replying: t for active, f for inactive

As a guide, the following entries are already answered.
Cc1coc2c1C(=O)C(=O)c1c-2ccc2c(C)cccc12    f
COC(=O)/C=C/C(=O)N(O)CCCCNCc1ccc(COC(=O)Nc2cccc3ccccc23)cc1    f

Q: Query: recorded result category for CN1CC2c3ccccc3Oc3ccc(Cl)cc3C2C1 (configuration not stated) [Asenapine] in this test
Ans: f

Q: Recorded test call requested for O=C(NCCCNc1nc(Nc2cccc(NC(=O)N3CCCC3)c2)ncc1I)c1cccs1
Ans: t

###

Form field: scaled lipid accumulation score (one value per entry).
Test system: primary human hepatic stellate cells (donor 1)
Test: scaled lipid accumulation score (0 = DMSO-like, 1 = nortriptyline-like); higher = stronger HSC inactivation (lipid re-accumulation), active = hit call of the paper
Conditions: library stock concentration: 10 mM; 48 h
Counter-ions that a name gives are not always drawn. The whole screen tested about 5,800 compounds, of which about 620 (11%) showed activity. The full list was thinned out, with actives kept by preference.

Solved entries:
CC(C)(C(=O)O)c1ccc(C(O)CCCN2CCC(C(O)(c3ccccc3)c3ccccc3)CC2)cc1 (stereo not drawn)    ≤ 0 (inactive)
Cc1cc2nc3c(=O)[nH]c(=O)nc-3n(CC(O)C(O)C(O)COP(=O)(O)O)c2cc1C (stereo not drawn)    ≤ 0 (inactive)

Q: I am curious: what scaled lipid accumulation score value has been reported for CC(C)CC(N)=O ?
Ans: 0.291 (inactive)

Q: Please give the measured scaled lipid accumulation score for this molecule: N#CC(c1ccnc(NCCc2cccnc2)n1)c1nc2ccccc2s1 (stereo not drawn)
Ans: 0.62 (inactive)

Q: Query: scaled lipid accumulation score; subject: c1ccc(C(O[C@@H]2CCCN(CCc3ccc4c(c3)OCO4)C2)c2ccccc2)cc1 [Zamifenacin fumarate]
Ans: 0.194 (inactive)

Q: Return reported scaled lipid accumulation score; argument: O[C@@H](COc1cccc2ncccc12)CN1CCN(C2c3ccccc3[C@@H]3[C@H](c4ccccc42)C3(F)F)CC1 (stereo partly drawn)
Ans: 0.837 (inactive)

Q: Could you share which scaled lipid accumulation score value was measured for CN(C)CC(C)(C)CNc1nn2c(-c3ccccc3)nnc2cc1C1CCC1 ?
Ans: 0.159 (inactive)

Q: Please look up its scaled lipid accumulation score: CCCCCCCCCCCCCCCC(=O)OC(CC(=O)O)C[N+](C)(C)C (racemic) [Palmitoyl-DL-Carnitine chloride]
Ans: 0.446 (inactive)

Q: Form field: reported scaled lipid accumulation score of Br.NC(=O)C(c1ccccc1)(c1ccccc1)[C@@H]1CCN(CCc2ccc3c(c2)CCO3)C1
Ans: 0.88 (active)

Q: // query scaled lipid accumulation score value for entry NC(=O)C(c1ccccc1)(c1ccccc1)[C@@H]1CCN(CCc2ccc3c(c2)CCO3)C1
Ans: 0.413 (inactive)

Q: Endpoint output: scaled lipid accumulation score of Cl.N#CC1=C(N)NC(=C2C(=O)C=CC=C2OCC2CC2)C=C1C1CCNCC1 . Value?
Ans: 1.09 (active)

Q: If you can, please state the reported scaled lipid accumulation score value of Br.NC(=O)C(c1ccccc1)(c1ccccc1)[C@@H]1CCN(CCc2ccc3c(c2)CCO3)C1 [Darifenacin HBr] .
Ans: 1.03 (active)

Q: Reported scaled lipid accumulation score, molecule CC(C)CCN1C(=O)N(CCN(C)C)C(=O)C12CCN(Cc1cn(C)c3ccccc13)CC2 : ____
Ans: 0.692 (active)

###

Below, each of the compounds is paired with its reported scaled lipid accumulation score value.
Test system: primary human hepatic stellate cells (donor 1)
Assay: scaled lipid accumulation score (0 = DMSO-like, 1 = nortriptyline-like); higher = stronger HSC inactivation (lipid re-accumulation), active = hit call of the paper
Settings: library stock concentration: 10 mM; 48 h
Where a name gives a salt, the structure may show the parent alone. The whole screen tested about 5,800 compounds, of which about 620 (11%) showed activity. The sample as a whole holds a higher share of actives than the screen did.

CC(CN1c2ccccc2Sc2ccccc21)N(C)C (stereo not drawn) [Promethazine HCl]    0.62 (inactive)
CC(=O)CCCCn1cnc2c1c(=O)n(C)c(=O)n2C    ≤ 0 (inactive)
CCOC(=O)[C@H](CCc1ccccc1)N[C@@H](C)C(=O)N1Cc2cc(OC)c(OC)cc2C[C@H]1C(=O)O [Moexipril hydrochloride]    0.011 (inactive)
CC(CN1c2ccccc2Sc2ccccc21)N(C)C (stereo not drawn) [Phenergan]    0.649 (inactive)
CN(C)CCCN1c2ccccc2Sc2ccccc21 [Promazine hydrochloride]    0.324 (inactive)
C[N+](C)(C)CCO.[Cl-] [Choline Chloride]    0.043 (inactive)
O=C(NC1CCN(CCCCC2(C(=O)NCC(F)(F)F)c3ccccc3-c3ccccc32)CC1)c1ccccc1-c1ccc(C(F)(F)F)cc1 [Lomitapide]    ≤ 0 (inactive)

# input for lookup
Q: scaled lipid accumulation score for COc1ccc(CCN(C)CCCC(C#N)(c2ccc(OC)c(OC)c2)C(C)C)cc1OC (stereo not drawn) [Verapamil hydrochloride] ?
Ans: 0.587 (inactive)

###

Listing of entries alongside the reported scaled lipid accumulation score.
Test system: primary human hepatic stellate cells (donor 1)
Test: scaled lipid accumulation score (0 = DMSO-like, 1 = nortriptyline-like); higher = stronger HSC inactivation (lipid re-accumulation), active = hit call of the paper
Conditions: library stock concentration: 1 mM; 48 h
Counter-ions that a name gives are not always drawn. About 620 (11%) of roughly 5,800 compounds showed activity. Only a selection was taken, and actives are over-represented in it overall.

Observe how each entry below is paired with its result.
COc1cc(C[C@H]2COC(=O)[C@@H]2Cc2ccc(O)c(OC)c2)ccc1O    ≤ 0 (inactive)
O=C(c1ccccc1)c1ccc2n1CCC2C(=O)O (configuration not stated) [Ketorolac (tromethamine salt)]    ≤ 0 (inactive)

Q: Dear colleague, I am looking for the recorded scaled lipid accumulation score of the following compound: CCCCC[C@H](O)CC[C@H]1[C@H](O)CC(=O)[C@@H]1CCCCCCC(=O)O [13,14-Dihydro-PGE1]
Ans: ≤ -0.021 (inactive)

Q: Given CCCCC[C@H](O)/C=C/[C@@H]1[C@@H](C/C=C\CCCCO)[C@@H](O)C[C@H]1O , state its recorded scaled lipid accumulation score.
Ans: ≤ 0 (inactive)

Q: Would you kindly share the measured scaled lipid accumulation score for CCCCC[C@H](O)C/C=C1/C(=O)C=C[C@@H]1C/C=C\CCCC(=O)O ?
Ans: ≤ -0.021 (inactive)

Q: GET /values?readout=scaled lipid accumulation score&item= COC(=O)CCCCCCC1C(O)CC(O)C1CCC(O)CSc1ccccc1F (configuration not stated)
Ans: ≤ 0 (inactive)

Q: # lookup: scaled lipid accumulation score of C=C1C[C@H](O)[C@H](C/C=C\CCCC(=O)O)[C@H]1/C=C/C(=O)CCCCC [11-deoxy-11-methylene-15-keto Prostaglandin D2]
Ans: ≤ 0 (inactive)

Q: What does the record list as scaled lipid accumulation score for CCCCCOc1ccccc1C(O)CC#CCCCC(=O)OC (configuration not stated) ?
Ans: 0.022 (inactive)

Q: Form field: reported scaled lipid accumulation score of CCCCC/C=C\C/C=C\C/C=C\C/C=C\CCCC(=O)O[C@H](COCCCCCCCCCCCCCCCC)COP(=O)([O-])OCC[N+](C)(C)C
Ans: ≤ -0.021 (inactive)

Q: Quick one: scaled lipid accumulation score for CCCCCC(=O)CC[C@@H]1[C@@H](CCCCCCC(=O)O)[C@@H](O)C[C@H]1O [13,14-dihydro-15-keto Prostaglandin F1.alpha.] ?
Ans: ≤ 0 (inactive)

###

Entries and their scaled lipid accumulation score values follow.
Tested on: primary human hepatic stellate cells (donor 1)
Assay: scaled lipid accumulation score (0 = DMSO-like, 1 = nortriptyline-like); higher = stronger HSC inactivation (lipid re-accumulation), active = hit call of the paper
Details: library stock concentration: 80 uM; 48 h
Out of some 5,800 compounds screened, about 620 (11%) showed activity. Only a selection was taken, and actives are over-represented in it overall.

# example entries with known answers
O=C1Nc2ccc(Cl)cc2/C1=C/c1cc(Cl)c(O)c(Cl)c1    ≤ -0.001 (inactive)
CC1CCN(c2cc(N3CCN(C)CC3)ccc2NC(=O)c2cc(C#N)c[nH]2)CC1    0.044 (inactive)
CCn1cc(-c2ccnc3[nH]c(-c4cccc(CN(C)C)c4)cc23)c(-c2ccc(NC(=O)N(C)C)cc2)n1    ≤ 0 (inactive)
N[C@@H]1CCCN(c2c(/C=C3\SC(=O)NC3=O)cccc2-c2ccccc2)C1    ≤ 0 (inactive)
Cc1[nH]c(/C=C2\C(=O)Nc3ccc(S(=O)(=O)N(C)c4cccc(Cl)c4)cc32)c(C)c1C(=O)N1CCN(C)CC1    0.129 (inactive)

Q: I am curious: what scaled lipid accumulation score value has been reported for CCc1cc2c(cc1N1CCC(N3CCOCC3)CC1)C(C)(C)c1[nH]c3cc(C#N)ccc3c1C2=O ?
Ans: ≤ -0.016 (inactive)

Q: # lookup: scaled lipid accumulation score of CCOc1cc2ncc(C#N)c(Nc3ccc(OCc4ccccn4)c(Cl)c3)c2cc1NC(=O)/C=C/CN(C)C
Ans: ≤ 0 (inactive)

Q: Can you look up the measured scaled lipid accumulation score of COc1ccc(S(=O)(=O)N(C(C)=O)c2ccccc2/C=C/c2cc[n+]([O-])cc2)cc1 for me?
Ans: ≤ -0.016 (inactive)

Q: I have this compound here, COc1cc(Nc2ncc(F)c(Nc3ccc4c(n3)NC(=O)C(C)(C)O4)n2)cc(OC)c1OC , and I need its recorded scaled lipid accumulation score.
Ans: ≤ 0 (inactive)

Q: // lookup scaled lipid accumulation score for CCC(=O)Nc1cccc(Oc2nc(Nc3ccc(N4CCN(C)CC4)cc3OC)ncc2Cl)c1
Ans: ≤ -0.001 (inactive)

Q: I would be grateful if you could share the reported scaled lipid accumulation score for N#Cc1c(C2CCNCC2)cc(-c2c(O)cccc2OCC2CC2)nc1N .
Ans: ≤ -0.016 (inactive)
